# EXPERIMENT_NOTES: qHTS assay to identify small molecule agonists of the AP-1 signaling pathway - cell viability counter screen (AID 1159525); also: nearly all actives have a fitted effect of over 55% in size; also: potency is read from the fitted curve at half-maximal effect
# CONDITION_SET: ME-180 (cervical carcinoma) AP-1-bla cells viability, ATP luminescence, 5 h; series mostly up to 76.8 µM
Results filed as inconclusive are left out. Calls of active or inactive are those of the source. Calls follow the shape of the full dose curve.
ENDPOINT: Potency

MOLECULE | ENDPOINT | RESULT
NCCCCCCNCCCCCCN | Potency | inactive
COC(=O)CC(C)CCC=C(C)C (centres undefined) | Potency | inactive
COC(=O)NCCC[Si](OC)(OC)OC | Potency | inactive
CCCCCCCC/C=C/CCCOC(C)=O | Potency | inactive

Qu. Report Potency for `O=CC1CC1` please.
Ans. inactive

Qu. Report Potency for `CCN=C1C=CC(=C(c2ccc(N(CC)CC)cc2)c2ccc(N(CC)CC)cc2)c2ccccc21` please.
Ans. 38.7 µM (active)

Qu. Report Potency for `Cc1ccc(N)cc1O` please.
Ans. 38.9 µM (active)

Qu. Report Potency for `Cc1occc1SSc1ccoc1C` please.
Ans. inactive
